SYSTEM: Large T antigen (Simian virus 40);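 also: Confirmatory-stage PubChem screen for compounds that inhibit SV40 T antigen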
Sequence (P03070 whole entry): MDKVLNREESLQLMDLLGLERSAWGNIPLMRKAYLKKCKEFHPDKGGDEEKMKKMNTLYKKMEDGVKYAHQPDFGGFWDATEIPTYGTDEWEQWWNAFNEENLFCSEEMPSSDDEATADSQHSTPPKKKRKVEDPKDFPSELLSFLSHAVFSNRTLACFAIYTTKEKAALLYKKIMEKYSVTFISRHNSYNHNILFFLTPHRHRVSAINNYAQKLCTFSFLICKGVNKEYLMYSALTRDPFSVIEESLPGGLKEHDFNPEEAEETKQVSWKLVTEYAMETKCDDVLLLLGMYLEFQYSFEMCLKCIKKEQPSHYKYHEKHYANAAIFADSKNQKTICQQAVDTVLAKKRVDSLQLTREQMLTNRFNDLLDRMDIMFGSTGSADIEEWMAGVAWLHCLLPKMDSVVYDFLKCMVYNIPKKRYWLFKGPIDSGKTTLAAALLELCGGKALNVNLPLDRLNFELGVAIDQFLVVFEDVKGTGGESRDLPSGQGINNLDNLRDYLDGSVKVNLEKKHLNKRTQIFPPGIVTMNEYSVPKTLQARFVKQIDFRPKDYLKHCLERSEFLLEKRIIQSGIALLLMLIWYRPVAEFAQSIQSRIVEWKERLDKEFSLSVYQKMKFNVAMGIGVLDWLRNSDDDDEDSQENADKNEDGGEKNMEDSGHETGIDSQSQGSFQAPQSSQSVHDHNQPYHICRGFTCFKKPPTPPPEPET
Format: functional, Betapolyomavirus macacae
Activity calls are given as the source filed them.
RECORDED_METRIC: IC50

Previously resolved entries follow.
>>> print(df.to_string())
                                   compound                             system  recorded_metric              value
0      COc1cccc(/C=N/c2ccc(N3CCOCC3)cc2)c1O  Large T antigen (Simian virus 40)             IC50   4.14 µM (active)
1  CN1C(=O)/C(=C/c2ccc(-c3ccccc3[N+](=O)[O-])o2)S/C1=N\c1ccc(Cl)c(C(=O)O)c1  Large T antigen (Simian virus 40)             IC50   52.8 µM (active)
2      C=C(CC)C(=O)c1ccc(OCC(=O)O)c(Cl)c1Cl  Large T antigen (Simian virus 40)             IC50  > 100 µM (active)

Lookup: What does the data say about its IC50? Entry: Oc1ccc(/C=N/Nc2cc(N3CCOCC3)nc(N3CCOCC3)n2)cc1O
Found: 23.1 µM (active)

Lookup: Which IC50 value belongs to COc1ccc(Br)cc1C1CC(=O)N2CN(C)CSC2=C1C#N (stereo unspecified) ?
Found: 76.9 µM (active)

Lookup: Would you kindly share the measured IC50 for CN(C)c1ccc(NC(=O)COC(=O)Cn2nnc3ccccc32)cc1 ?
Found: 6.63 µM (active)

This collection of values is drawn from ChEMBL document CHEMBL1201862.
